assay: Metabolic stability in human hepatic microsome; type: in vitro ADME; conditions: microsomes, pH 7.4; human hepatic microsome, NADPH(+); read-out: CL NADPH(+)
Starred links: 1 amine or outer side, 2 acyl side, 3 side chain; linkers in the order of their positions; H or OH if unused. Positions of bridges follow the written chain, without caps; N, C: chain ends. Non-standard residues stand in square brackets, D forms with d. Residues, ends and D or L forms follow the SMILES beside them. *: point of attachment. Phe(4-(CH2)5CO) = O=C([C@H](Cc1ccc(CCCCCC(=O)[*:3])cc1)N[*:1])[*:2]; Phe(3-(CH2)4CO) = O=C([C@H](Cc1cccc(CCCCC(=O)[*:3])c1)N[*:1])[*:2]; NMeF = CN[C@@H](Cc1ccccc1)C(=O)O; NMeL = CN[C@@H](CC(C)C)C(=O)O; NMeV = CN[C@H](C(=O)O)C(C)C; NMeS = CN[C@@H](CO)C(=O)O; NMeA = CN[C@@H](C)C(=O)O; Piperidide = C1CCN(*)CC1; β3hA = C[C@H](N)CC(=O)O; Abu = CC[C@H](N)C(=O)O; Aib = CC(C)(N)C(=O)O; Sar = CNCC(=O)O; tBu = CC(C)(C)*
Overview of reported microsomal CLint at 1 uM across a group of molecules:
measure-name: microsomal CLint at 1 uM (µL/min/mg)

[[record]]
molecule = "CC(C)C[C@@H]1NC(=O)[C@H](CC(C)C)NC(=O)[C@H](C)N(C)C(=O)C[C@@H](C(=O)N2CCCCC2)NC(=O)[C@H](C(C)C)N(C)C(=O)[C@H](CC(C)C)NC(=O)[C@H](Cc2ccccc2)NC(=O)[C@H]([C@@H](C)O)NC(=O)CN(C)C(=O)[C@H](CC(C)C)NC(=O)C(C)(C)NC1=O [DP-560] ([NMeA]LL[Aib]L[Sar]TFL[NMeV]D-Piperidide; lactam N-11)"
value = 28

[[record]]
molecule = "CC(C)C[C@H]1C(=O)N[C@H](C(=O)N2CCCCC2)Cc2cccc(c2)CCCCC(=O)N[C@@H]([C@@H](C)O)C(=O)N(C)[C@@H](C)C(=O)N(C)[C@@H](Cc2ccccc2)C(=O)NCC(=O)N(C)[C@@H](Cc2ccccc2)C(=O)N(C)[C@@H](CC(C)C)C(=O)N(C)[C@@H](CC(C)C)C(=O)N1C [DP-843] (T[NMeA][NMeF]G[NMeF][NMeL][NMeL][NMeL][Phe(3-(CH2)4CO)]-Piperidide; lactam N-9)"
value = 505

[[record]]
molecule = "CC[C@H](C)[C@@H]1NC(=O)[C@H](CC(C)C)N(C)C(=O)CN(C)C(=O)[C@H]([C@@H](C)O)NC(=O)[C@H](C)N(C)C(=O)C[C@@H](C(=O)N(C)[C@@H](C)C(=O)N[C@@H](CC(C)C)C(=O)N[C@H](C(=O)N(C)[C@@H](C)C(=O)N[C@@H](C)C(=O)N2CCCCC2)C(C)C)NC(=O)[C@H](CC(C)C)N(C)C(=O)[C@H](Cc2ccccc2)N(C)C(=O)[C@H](CC(C)C)N(C)C1=O [DP-659] ([NMeA]T[Sar][NMeL]I[NMeL][NMeF][NMeL]D[NMeA]LV[NMeA]A-Piperidide; lactam N-9)"
value = 13

[[record]]
molecule = "CC(C)[C@@H]1NC(=O)[C@H](C)N(C)C(=O)[C@H](Cc2ccccc2)N(C)C(=O)[C@H](C)N(C)C(=O)[C@H]([C@@H](C)O)NC(=O)[C@H](C)N(C)C(=O)[C@H](C)N(C)C(=O)C[C@@H](C(=O)N(C)[C@@H](Cc2ccccc2)C(=O)N(C)[C@@H](Cc2ccccc2)C(=O)N[C@@H](C)C(=O)N2CCCCC2)NC(=O)[C@H](C)N(C)C(=O)[C@H](C)N(C)C1=O [DP-460] ([NMeA][NMeA]T[NMeA][NMeF][NMeA]V[NMeA][NMeA]D[NMeF][NMeF]A-Piperidide; lactam N-10)"
value = 17

[[record]]
molecule = "CC(C)C[C@H]1C(=O)N[C@H](C(=O)N2CCCCC2)CC(=O)N(C)[C@@H](C)C(=O)N(C)[C@@H](Cc2ccccc2)C(=O)N(C)[C@@H](C)C(=O)N[C@@H]([C@@H](C)O)C(=O)N(C)[C@@H](C)C(=O)N[C@@H](Cc2ccccc2)C(=O)N(C)[C@@H](C)C(=O)N[C@@H](C)C(=O)N(C)[C@@H](C)C(=O)N1C [DP-422] ([NMeA][NMeF][NMeA]T[NMeA]F[NMeA]A[NMeA][NMeL]D-Piperidide; lactam N-11)"
value = 26

[[record]]
molecule = "CC(C)C[C@H]1C(=O)N(C)[C@@H](CC(C)C)C(=O)N[C@@H](C)C(=O)N(C)[C@@H](CC(C)C)C(=O)N(C)[C@@H](Cc2ccccc2)C(=O)N(C)[C@@H](Cc2ccccc2)C(=O)N[C@@H]([C@@H](C)O)C(=O)N(C)[C@@H](C)C(=O)N(C)[C@@H](CC(C)C)C(=O)N[C@H](C(=O)N2CCCCC2)Cc2ccc(cc2)CCCCCC(=O)N1C [DP-858] ([NMeL][NMeL]A[NMeL][NMeF][NMeF]T[NMeA][NMeL][Phe(4-(CH2)5CO)]-Piperidide; lactam N-10)"
value = 77

[[record]]
molecule = "CC(C)C[C@@H]1NC(=O)[C@H](Cc2ccccc2)N(C)C(=O)CN(C)C(=O)[C@H]([C@@H](C)O)NC(=O)[C@H](CC(C)C)N(C)C(=O)[C@H](C)NC(=O)C[C@@H](C(=O)N(C)[C@@H](CC(C)C)C(=O)N[C@H](C(=O)N(C)[C@@H](C)C(=O)N[C@@H](C)C(=O)N2CCCCC2)C(C)C)NC1=O [DP-566] (A[NMeL]T[Sar][NMeF]LD[NMeL]V[NMeA]A-Piperidide; lactam N-7)"
value = 38

[[record]]
molecule = "CC(C)C[C@@H]1NC(=O)[C@H]([C@@H](C)O)NC(=O)[C@H](CC(C)C)NC(=O)[C@H](CC(C)C)N(C)C(=O)[C@H](Cc2ccccc2)NC(=O)[C@H](Cc2ccccc2)NC(=O)[C@H](C)N(C)C(=O)C[C@@H](C(=O)N2CCCCC2)NC(=O)[C@H](Cc2ccccc2)N(C)C(=O)CNC1=O [DP-116] ([NMeA]FF[NMeL]LTLG[NMeF]D-Piperidide; lactam N-10)"
value = 333

[[record]]
molecule = "CC[C@@H]1NC(=O)[C@H](CO)N(C)C(=O)[C@H](CC(C)C)N(C)C(=O)[C@H](CC(C)C)N(C)C(=O)[C@H](CC(C)C)N(C)C(=O)[C@@H](CC(C)C)NC(=O)[C@H](C)NC(=O)[C@H](CC(C)C)N(C)C(=O)[C@H](C)NC(=O)[C@H](CC(C)C)N(C)C(=O)C[C@H](C)NC1=O [DP-650] (cyclo(A[NMeL]A[dL][NMeL][NMeL][NMeL][NMeS][Abu][β3hA][NMeL]))"
value = 33

[[record]]
molecule = "CC(C)C[C@H]1C(=O)N[C@@H](COC(C)(C)C)C(=O)N[C@H](C(=O)N2CCCCC2)CC(=O)N[C@H](C(C)C)C(=O)N(C)[C@@H](Cc2ccccc2)C(=O)N(C)[C@@H](C)C(=O)N(C)[C@@H](CC(C)C)C(=O)N[C@@H]([C@@H](C)O)C(=O)N(C)[C@@H](C)C(=O)N1C [DP-266] ([dV][NMeF][NMeA][NMeL]T[NMeA][NMeL]S(tBu)D-Piperidide; lactam N-9)"
value = 134

